target: human vesicular acetylcholine transporter (VAChT) (Homo sapiens); construct: expressed in transfected cells; host or cells: PC12 A123.7 cells (crude extract / homogenized, partially clarified cells); assay: VAChT binding assay, (−)-[3H]vesamicol, human VAChT expressed in PC12 cells; conditions: Table 4, Ki values of VAChT specific compounds; source not given; read-out: VAChT
Sequence (Q16572 whole entry): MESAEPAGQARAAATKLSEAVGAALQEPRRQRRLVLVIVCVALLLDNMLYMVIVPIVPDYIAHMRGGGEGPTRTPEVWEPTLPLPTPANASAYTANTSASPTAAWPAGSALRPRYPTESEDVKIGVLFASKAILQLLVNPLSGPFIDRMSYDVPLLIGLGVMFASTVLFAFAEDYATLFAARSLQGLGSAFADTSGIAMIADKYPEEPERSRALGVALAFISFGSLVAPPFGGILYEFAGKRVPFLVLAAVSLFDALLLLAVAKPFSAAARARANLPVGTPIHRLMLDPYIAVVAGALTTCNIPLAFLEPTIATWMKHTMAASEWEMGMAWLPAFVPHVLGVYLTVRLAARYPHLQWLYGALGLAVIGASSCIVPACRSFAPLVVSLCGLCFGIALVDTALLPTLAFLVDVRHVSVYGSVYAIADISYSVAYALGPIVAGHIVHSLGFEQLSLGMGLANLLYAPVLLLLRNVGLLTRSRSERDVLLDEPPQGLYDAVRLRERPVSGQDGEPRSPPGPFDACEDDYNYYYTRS
Endpoint name: Ki (nM)

[I] COc1ccc(C(=O)C2CCN(C3CN(Cc4ccccc4)CCC3O)CC2)cc1 (stereo not shown) [WW-1-109]
[II] Nc1cccc2c1CC(N1CCC(C(=O)c3ccc(F)cc3)CC1)C(O)C2 (single isomer, unassigned) [WW-1-88-2]
Record comparison, field Ki: mark the lower of I and II . Response format: the label of the selected entry.
II
(II: 20.9 nM, I: 35.5 nM)

###

Target: σ2 receptor (Rattus norvegicus, UniProt Q5U3Y7)
Sequence (Q5U3Y7 1-176): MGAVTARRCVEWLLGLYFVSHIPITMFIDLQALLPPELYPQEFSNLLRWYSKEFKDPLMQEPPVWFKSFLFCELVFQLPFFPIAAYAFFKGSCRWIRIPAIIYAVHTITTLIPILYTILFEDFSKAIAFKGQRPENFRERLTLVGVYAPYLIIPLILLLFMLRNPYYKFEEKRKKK
Assay: σ2 receptor binding assay, [3H]DTG, rat liver membrane homogenates
Design: conducted using rat liver membrane homogenates; from tissue; host or cells: rat liver membrane homogenates
Settings: Table 4, Ki values of VAChT specific compounds; tissue not given; read-out: Sigma-2 σ1
Endpoint name: Ki (µM)

Example entries and their recorded answers appear below.
Compound	Ki / µM
O=C(c1ccc(F)cc1)C1CCN(C2CN(C(=O)c3ccc(F)cc3)CCC2O)CC1 (stereo not shown)	1.38
COc1ccc(C(=O)C2CCN(C3CN(Cc4ccccc4)CCC3O)CC2)cc1 (stereo not shown)	8.54
Cc1ccsc1C(=O)N1CCC(O)C(N2CCC(C(=O)c3ccc(F)cc3)CC2)C1 (stereo not shown)	4.22
O=C(c1ccc(F)cc1)C1CCN(C2CN(C(=O)c3cccs3)CCC2O)CC1 (stereo not shown)	4.05

[a] O=C(c1ccc(F)cc1)C1CCN(C2CN(C(=O)c3ccccc3)CCC2O)CC1 (stereo not shown)
[b] Nc1cccc2c1CC(N1CCC(C(=O)c3ccc(F)cc3)CC1)C(O)C2 (single isomer, unassigned) [WW-1-88-2]
Choose between a and b : whose measured Ki value is numerically larger? Response format: the label of the selected entry.
b

###

biological target: σ1 receptor (Cavia porcellus, UniProt Q60492); construct: using guinea pig brain membrane homogenates; from tissue; host or cells: guinea pig brain membrane homogenates; test: σ1 receptor binding assay, (+)-[3H]pentazocine, guinea pig brain membranes; conditions: Table 4, Ki values of VAChT specific compounds; tissue not given; read-out: Sigma-1 σ1
Sequence (Q60492 whole entry): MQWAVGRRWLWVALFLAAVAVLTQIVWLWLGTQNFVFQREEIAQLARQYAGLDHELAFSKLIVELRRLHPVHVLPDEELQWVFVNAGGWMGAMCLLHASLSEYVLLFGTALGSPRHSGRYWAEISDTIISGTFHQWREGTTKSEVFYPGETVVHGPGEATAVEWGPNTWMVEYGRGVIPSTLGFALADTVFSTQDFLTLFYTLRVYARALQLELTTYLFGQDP
Where a name gives a salt, the structure may show the parent alone.
Endpoint name: Ki (µM)

Compound	Target under test	Ki [µM]
COc1ccc(C(=O)C2CCN(C3Cc4c(N)cccc4CC3O)CC2)cn1 (stereo not drawn) [OS-5-82, oxalate]	σ1 receptor (Cavia porcellus, UniProt Q60492)	5.68

[P] O=C(c1ccc(F)cc1)C1CCN(C2CN(Cc3cccnc3)CCC2O)CC1 (stereo not drawn) [WW-III-47]
[Q] Nc1cccc2c1CC(N1CCC(C(=O)c3ccc(F)cc3)CC1)C(O)C2 (single isomer, unassigned) [WW-1-88-1]
Choose between P and Q : whose measured Ki value is numerically larger? Response format: the label of the selected entry.
Q

Data credit: patent US8658131B2
